# Tested on: melanoma cells
# method.notes: SRB cytotoxicity assay, statements not tied to one cell line
# Assay type: cell-based, human
# settings: melanoma cells and fibroblast cells

{"columns": ["compound", "potency/activity in words"],
 "data": [
  ["CCCCCCCCCCNC(=O)[C@@H]1CSC(c2ccc(OC)c(OC)c2)N1 (stereo partly drawn) [Compound 306]", "low potency"],
  ["CCCCCCCCCCNC(=O)[C@@H]1CSC(c2cc(OC)c(OC)c(OC)c2)N1 (stereo partly drawn) [Compound 302]", "low potency"],
  ["CCCCCCCCCCNC(=O)[C@@H]1CSC(c2ccc3c(c2)OCO3)N1 (stereo partly drawn) [Compound 310]", "low potency"]
]}

Provenance of the data: patent US20080255213A1
